- target.entity: UniProt O35505
- Sequence (O35505 whole entry): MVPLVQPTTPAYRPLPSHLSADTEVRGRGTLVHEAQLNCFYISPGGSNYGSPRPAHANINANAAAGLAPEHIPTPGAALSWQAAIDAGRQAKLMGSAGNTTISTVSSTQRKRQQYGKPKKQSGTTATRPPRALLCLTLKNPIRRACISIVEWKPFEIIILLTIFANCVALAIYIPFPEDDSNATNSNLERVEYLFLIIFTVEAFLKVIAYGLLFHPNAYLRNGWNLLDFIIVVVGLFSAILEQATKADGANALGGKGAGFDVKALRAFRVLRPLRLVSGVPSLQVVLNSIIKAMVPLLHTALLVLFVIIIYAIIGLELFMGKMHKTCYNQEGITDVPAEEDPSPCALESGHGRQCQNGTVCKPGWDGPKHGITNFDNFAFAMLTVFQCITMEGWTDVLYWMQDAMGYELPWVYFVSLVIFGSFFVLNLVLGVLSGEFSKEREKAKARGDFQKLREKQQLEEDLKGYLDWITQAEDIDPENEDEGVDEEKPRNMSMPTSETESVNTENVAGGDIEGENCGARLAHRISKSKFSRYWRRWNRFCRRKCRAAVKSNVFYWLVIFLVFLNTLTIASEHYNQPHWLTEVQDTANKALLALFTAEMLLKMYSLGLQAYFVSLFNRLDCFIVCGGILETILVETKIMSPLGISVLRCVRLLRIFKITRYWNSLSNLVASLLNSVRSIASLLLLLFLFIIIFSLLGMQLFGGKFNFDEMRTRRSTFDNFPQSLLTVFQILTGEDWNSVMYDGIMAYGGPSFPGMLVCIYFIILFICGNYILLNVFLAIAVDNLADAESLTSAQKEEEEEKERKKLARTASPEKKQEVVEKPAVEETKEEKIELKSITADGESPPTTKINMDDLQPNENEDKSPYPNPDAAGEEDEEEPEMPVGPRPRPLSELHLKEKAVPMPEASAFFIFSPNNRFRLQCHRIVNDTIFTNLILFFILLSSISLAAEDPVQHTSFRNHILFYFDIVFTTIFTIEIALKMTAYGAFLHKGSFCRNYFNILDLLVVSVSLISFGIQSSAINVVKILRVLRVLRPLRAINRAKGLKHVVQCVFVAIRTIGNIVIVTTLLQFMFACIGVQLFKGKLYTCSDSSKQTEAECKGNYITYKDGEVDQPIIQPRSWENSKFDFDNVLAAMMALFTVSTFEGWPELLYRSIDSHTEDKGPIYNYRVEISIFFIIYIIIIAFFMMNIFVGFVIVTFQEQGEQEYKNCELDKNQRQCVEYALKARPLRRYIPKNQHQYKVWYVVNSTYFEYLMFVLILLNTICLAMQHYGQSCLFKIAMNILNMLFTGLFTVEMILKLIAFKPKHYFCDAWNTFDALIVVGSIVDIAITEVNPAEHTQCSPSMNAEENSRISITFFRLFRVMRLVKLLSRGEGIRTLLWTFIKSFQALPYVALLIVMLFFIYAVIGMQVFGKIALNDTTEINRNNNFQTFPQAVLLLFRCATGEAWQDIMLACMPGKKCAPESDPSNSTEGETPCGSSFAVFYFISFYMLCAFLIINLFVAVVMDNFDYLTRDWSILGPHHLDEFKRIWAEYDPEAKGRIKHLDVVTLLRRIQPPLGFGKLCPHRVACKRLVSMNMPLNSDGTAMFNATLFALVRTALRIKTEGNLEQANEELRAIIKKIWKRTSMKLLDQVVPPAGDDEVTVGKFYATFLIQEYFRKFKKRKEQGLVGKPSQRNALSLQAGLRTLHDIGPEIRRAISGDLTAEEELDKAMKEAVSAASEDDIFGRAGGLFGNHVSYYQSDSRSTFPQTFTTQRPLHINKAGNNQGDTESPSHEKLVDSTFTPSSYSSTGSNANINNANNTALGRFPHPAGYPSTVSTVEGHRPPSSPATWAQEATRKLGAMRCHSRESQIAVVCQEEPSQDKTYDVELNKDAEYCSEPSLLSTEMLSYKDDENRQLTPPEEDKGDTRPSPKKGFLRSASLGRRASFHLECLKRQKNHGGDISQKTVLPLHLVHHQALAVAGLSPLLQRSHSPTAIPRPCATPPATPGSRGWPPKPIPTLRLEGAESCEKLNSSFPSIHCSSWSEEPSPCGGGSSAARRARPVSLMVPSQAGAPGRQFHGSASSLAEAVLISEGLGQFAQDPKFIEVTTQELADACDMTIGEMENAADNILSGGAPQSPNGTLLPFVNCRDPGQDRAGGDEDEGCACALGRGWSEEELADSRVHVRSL
pKd: −log10 of the molar value.
parameter.measured: pKd

**Q:** Need pKd, item CCOC(=O)C1=C(C)NC(C)=C(C(=O)OCCNC(=O)CCc2ccc(O)c([125I])c2)C1c1ccccc1C(F)(F)F (stereo not shown) [^125 I-labelled 1,4-dihydropyridine]
**A:** > 9.00

----------
- target.entity: guinea-pig skeletal muscle membranes (1,4-dihydropyridine receptors / calcium channel) (Cavia porcellus, UniProt A0A286X7I0)
- Construct: membrane fractions from guinea-pig brain, cardiac muscle and skeletal muscle
- Sequence (A0A286X7I0 1-1867): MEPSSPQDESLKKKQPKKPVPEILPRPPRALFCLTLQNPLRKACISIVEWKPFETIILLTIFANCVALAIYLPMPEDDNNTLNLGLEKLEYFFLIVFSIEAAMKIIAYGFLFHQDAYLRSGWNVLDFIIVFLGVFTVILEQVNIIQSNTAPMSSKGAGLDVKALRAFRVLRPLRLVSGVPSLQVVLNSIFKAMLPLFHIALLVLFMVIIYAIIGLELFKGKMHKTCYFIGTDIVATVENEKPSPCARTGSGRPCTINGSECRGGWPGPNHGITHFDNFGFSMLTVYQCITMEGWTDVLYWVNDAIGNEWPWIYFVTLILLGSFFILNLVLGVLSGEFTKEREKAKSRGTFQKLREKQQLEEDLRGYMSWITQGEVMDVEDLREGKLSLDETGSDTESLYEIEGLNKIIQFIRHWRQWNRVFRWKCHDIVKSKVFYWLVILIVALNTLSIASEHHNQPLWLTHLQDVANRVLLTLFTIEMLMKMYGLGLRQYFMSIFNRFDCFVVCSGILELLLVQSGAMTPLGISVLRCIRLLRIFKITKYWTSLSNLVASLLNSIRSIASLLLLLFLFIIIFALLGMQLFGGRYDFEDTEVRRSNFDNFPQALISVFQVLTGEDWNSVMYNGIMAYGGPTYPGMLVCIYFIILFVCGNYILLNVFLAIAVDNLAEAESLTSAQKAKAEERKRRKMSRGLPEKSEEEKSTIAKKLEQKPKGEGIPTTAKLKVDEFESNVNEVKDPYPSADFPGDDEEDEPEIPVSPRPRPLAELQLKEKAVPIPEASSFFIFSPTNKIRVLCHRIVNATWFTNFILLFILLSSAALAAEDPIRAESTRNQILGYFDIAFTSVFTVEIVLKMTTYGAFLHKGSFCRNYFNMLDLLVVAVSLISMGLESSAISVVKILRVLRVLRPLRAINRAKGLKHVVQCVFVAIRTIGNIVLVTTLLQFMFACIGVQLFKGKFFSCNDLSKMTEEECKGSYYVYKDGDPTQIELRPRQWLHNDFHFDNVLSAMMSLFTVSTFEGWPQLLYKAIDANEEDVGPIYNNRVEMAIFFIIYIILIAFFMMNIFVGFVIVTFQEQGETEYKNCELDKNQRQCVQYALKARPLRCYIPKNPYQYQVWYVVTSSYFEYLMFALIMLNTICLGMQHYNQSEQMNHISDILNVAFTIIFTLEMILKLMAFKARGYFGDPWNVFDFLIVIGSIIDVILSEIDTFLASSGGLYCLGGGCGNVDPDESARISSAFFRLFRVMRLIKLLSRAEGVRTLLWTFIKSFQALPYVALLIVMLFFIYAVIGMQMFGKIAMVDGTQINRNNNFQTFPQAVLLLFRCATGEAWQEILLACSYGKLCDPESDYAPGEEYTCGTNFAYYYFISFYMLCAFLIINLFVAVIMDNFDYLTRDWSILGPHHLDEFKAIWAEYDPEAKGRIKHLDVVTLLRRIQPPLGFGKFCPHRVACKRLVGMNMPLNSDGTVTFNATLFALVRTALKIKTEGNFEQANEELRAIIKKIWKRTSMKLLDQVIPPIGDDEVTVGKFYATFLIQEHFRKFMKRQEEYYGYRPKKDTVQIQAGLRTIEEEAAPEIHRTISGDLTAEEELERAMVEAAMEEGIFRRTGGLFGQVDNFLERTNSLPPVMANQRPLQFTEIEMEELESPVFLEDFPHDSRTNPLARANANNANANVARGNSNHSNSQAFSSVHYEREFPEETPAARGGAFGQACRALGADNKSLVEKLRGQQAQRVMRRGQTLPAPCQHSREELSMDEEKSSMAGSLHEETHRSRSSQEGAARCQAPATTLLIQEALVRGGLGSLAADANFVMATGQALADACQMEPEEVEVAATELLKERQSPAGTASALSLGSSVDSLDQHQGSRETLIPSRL
- assay.comment: Competition radioreceptor assay with the ^125 I-labelled 1,4-dihydropyridine of Example 2
- Description: In order to separate the free ligand from the bound ligand, 10% (w/v) polyethylene glycol 6000 was added to ice-cold 10 mM TRIS HCl buffer, pH 7.4, followed by 20 mM MgCl2 (3.5 ml), the sample was diluted, suction filtered in vacuo over a glass fibre filter, and the glass fibre filter was rewashed twice with 3.5 ml of the same buffer. The particle-bound radioactivity retained on the filters was then measured. […]
parameter.measured: EC50 (nM)
Note: unit nM is implicit; provide only the numeric part.

**Q:** Need EC50, item COc1ccc([C@@H]2Sc3ccccc3N(CCN(C)C)C(=O)[C@@H]2OC(C)=O)cc1 [d-cis-Diltiazem]
**A:** 960

Each recorded value in this set is attributed to patent US4784958A.
